# assay system: CAMKK1 (human) (UniProt Q8N5S9)
# Sequence (Q8N5S9 whole entry, looked up): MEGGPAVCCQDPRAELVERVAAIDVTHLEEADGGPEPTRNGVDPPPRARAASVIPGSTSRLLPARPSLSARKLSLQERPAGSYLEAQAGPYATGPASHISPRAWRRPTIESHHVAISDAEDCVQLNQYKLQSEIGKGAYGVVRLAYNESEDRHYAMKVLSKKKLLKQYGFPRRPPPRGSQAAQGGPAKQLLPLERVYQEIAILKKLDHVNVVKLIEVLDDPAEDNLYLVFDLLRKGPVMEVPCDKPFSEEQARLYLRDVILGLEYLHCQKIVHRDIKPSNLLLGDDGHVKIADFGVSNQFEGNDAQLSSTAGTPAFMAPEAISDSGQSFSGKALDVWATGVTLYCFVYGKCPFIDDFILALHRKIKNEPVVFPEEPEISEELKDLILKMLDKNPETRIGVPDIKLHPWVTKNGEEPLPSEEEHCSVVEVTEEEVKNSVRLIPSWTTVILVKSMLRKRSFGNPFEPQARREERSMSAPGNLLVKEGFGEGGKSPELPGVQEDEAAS
# test method notes: KINOMEscan competition binding
# run conditions: compound 10.0 µM
Lab note - cut at 80% for kinase still bound, per cent of control: rule met if strictly below, rule not met if not.

[
  {
    "molecule": "COc1cc2c(Nc3ccc(NC(=O)c4ccccc4)cc3)ncnc2cc1OCCCN1CCOCC1",
    "category": "rule met"
  },
  {
    "molecule": "CCN(CCO)CCCOc1ccc2c(Nc3cc(CC(=O)Nc4cccc(F)c4)[nH]n3)ncnc2c1",
    "category": "rule met"
  },
  {
    "molecule": "CNC(=O)Nc1ccc(-c2nc(N3CC4CCC(C3)O4)c3cnn(C4CCC5(CC4)OCCO5)c3n2)cc1",
    "category": "rule not met"
  },
  {
    "molecule": "CCCS(=O)(=O)Nc1ccc(F)c(C(=O)c2c[nH]c3ncc(Cl)cc23)c1F",
    "category": "rule met"
  },
  {
    "molecule": "COc1cc(N2CCC(C(N)=O)CC2)ccc1Nc1nc(N)c(Cl)c(Nc2ccccc2S(=O)(=O)C(C)C)n1",
    "category": "rule met"
  },
  {
    "molecule": "CC(=O)c1c(C)c2cnc(Nc3ccc(N4CCNCC4)cn3)nc2n(C2CCCC2)c1=O",
    "category": "rule met"
  },
  {
    "molecule": "COc1cc(C)c(Sc2cnc(NC(=O)c3ccc(CNC(C)C(C)C)cc3)s2)cc1C(=O)N1CCN(C(C)=O)CC1 (stereo not drawn)",
    "category": "rule not met"
  },
  {
    "molecule": "Cc1cn(-c2cc(C(=O)Nc3ccc(C)c(NC(=O)c4ccno4)c3)cc(C(F)(F)F)c2)cn1",
    "category": "rule not met"
  },
  {
    "molecule": "COc1ccc(N(C(=O)Oc2cc(C(=O)Nc3cccc(C(F)(F)F)c3)ccc2C)c2ccnc(Nc3ccc(N4CCN(C)CC4)cc3)n2)c(OC)c1",
    "category": "rule not met"
  },
  {
    "molecule": "N#C/C(=C1/Nc2ccccc2S1)c1ccnc(NCCc2cccnc2)n1",
    "category": "rule not met"
  },
  {
    "molecule": "CCN1CCN(Cc2ccc(NC(=O)c3ccc(C)c(/C=C/c4cnc5[nH]ccc5c4OC)c3)cc2C(F)(F)F)CC1",
    "category": "rule not met"
  },
  {
    "molecule": "O=c1[nH]c2ccccc2n1C1CCN(Cc2ccc(-c3nc4cc5[nH]cnc5cc4nc3-c3ccccc3)cc2)CC1",
    "category": "rule not met"
  },
  {
    "molecule": "CC1=C(C(=O)Nc2cc3cn[nH]c3cc2F)C(c2ccc(C(F)(F)F)cc2)CC(=O)N1 (stereo not drawn)",
    "category": "rule met"
  }
]

====

# assay system: MAP3K9 (human) (UniProt P80192)
# Sequence (P80192 whole entry, looked up): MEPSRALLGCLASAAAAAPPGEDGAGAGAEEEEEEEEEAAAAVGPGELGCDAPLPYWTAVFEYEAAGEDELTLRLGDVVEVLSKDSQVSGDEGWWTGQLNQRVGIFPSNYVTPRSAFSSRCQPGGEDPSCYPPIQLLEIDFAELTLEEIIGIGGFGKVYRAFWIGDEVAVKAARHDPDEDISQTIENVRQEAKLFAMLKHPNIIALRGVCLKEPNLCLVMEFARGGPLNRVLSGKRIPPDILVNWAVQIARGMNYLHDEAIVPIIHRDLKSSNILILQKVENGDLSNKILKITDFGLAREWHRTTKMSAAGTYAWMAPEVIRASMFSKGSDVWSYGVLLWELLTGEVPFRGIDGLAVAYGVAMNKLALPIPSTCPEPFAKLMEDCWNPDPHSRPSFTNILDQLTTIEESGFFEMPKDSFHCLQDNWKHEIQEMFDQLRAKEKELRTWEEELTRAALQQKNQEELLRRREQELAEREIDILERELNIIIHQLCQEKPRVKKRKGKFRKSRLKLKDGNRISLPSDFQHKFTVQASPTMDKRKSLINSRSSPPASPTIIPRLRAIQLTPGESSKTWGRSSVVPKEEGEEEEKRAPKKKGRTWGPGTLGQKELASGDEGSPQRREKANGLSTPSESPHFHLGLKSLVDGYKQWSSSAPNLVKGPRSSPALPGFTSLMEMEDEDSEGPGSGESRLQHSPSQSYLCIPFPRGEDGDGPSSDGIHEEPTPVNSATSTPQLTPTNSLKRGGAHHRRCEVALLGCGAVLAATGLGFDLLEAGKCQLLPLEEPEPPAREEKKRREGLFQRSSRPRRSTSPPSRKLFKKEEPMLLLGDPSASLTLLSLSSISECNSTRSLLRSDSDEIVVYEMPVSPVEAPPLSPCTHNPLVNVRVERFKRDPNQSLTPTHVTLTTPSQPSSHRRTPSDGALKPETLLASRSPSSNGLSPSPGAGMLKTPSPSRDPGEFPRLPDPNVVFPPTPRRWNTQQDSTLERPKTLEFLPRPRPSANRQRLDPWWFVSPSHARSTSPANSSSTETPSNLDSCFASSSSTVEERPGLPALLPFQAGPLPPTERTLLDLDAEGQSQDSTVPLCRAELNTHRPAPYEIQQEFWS
# test method notes: KINOMEscan competition binding
# run conditions: compound 10.0 µM

[
  {
    "compound": "COc1cc(C)c(Sc2cnc(NC(=O)c3ccc(CNC(C)C(C)C)cc3)s2)cc1C(=O)N1CCN(C(C)=O)CC1 (centres undefined)",
    "value units": "%",
    "kinase still bound, per cent of control": 100
  },
  {
    "compound": "Cc1cn(-c2cc(C(=O)Nc3ccc(C)c(NC(=O)c4ccno4)c3)cc(C(F)(F)F)c2)cn1",
    "value units": "%",
    "kinase still bound, per cent of control": 100
  },
  {
    "compound": "CCCS(=O)(=O)Nc1ccc(F)c(C(=O)c2c[nH]c3ncc(Cl)cc23)c1F",
    "value units": "%",
    "kinase still bound, per cent of control": 94
  },
  {
    "compound": "COc1cc2c(Nc3ccc(NC(=O)c4ccccc4)cc3)ncnc2cc1OCCCN1CCOCC1",
    "value units": "%",
    "kinase still bound, per cent of control": 70
  },
  {
    "compound": "O=c1[nH]c2ccccc2n1C1CCN(Cc2ccc(-c3nc4cc5[nH]cnc5cc4nc3-c3ccccc3)cc2)CC1",
    "value units": "%",
    "kinase still bound, per cent of control": 96
  },
  {
    "compound": "CC1=C(C(=O)Nc2cc3cn[nH]c3cc2F)C(c2ccc(C(F)(F)F)cc2)CC(=O)N1 (centres undefined)",
    "value units": "%",
    "kinase still bound, per cent of control": 93
  },
  {
    "compound": "CNC(=O)Nc1ccc(-c2nc(N3CC4CCC(C3)O4)c3cnn(C4CCC5(CC4)OCCO5)c3n2)cc1",
    "value units": "%",
    "kinase still bound, per cent of control": 97
  },
  {
    "compound": "COc1ccc(N(C(=O)Oc2cc(C(=O)Nc3cccc(C(F)(F)F)c3)ccc2C)c2ccnc(Nc3ccc(N4CCN(C)CC4)cc3)n2)c(OC)c1",
    "value units": "%",
    "kinase still bound, per cent of control": 100
  },
  {
    "compound": "COc1cc2ncnc(Nc3cccc(Cl)c3)c2cc1OC",
    "value units": "%",
    "kinase still bound, per cent of control": 86
  }
]

====

# assay system: FYN (human) (UniProt P06241)
# Sequence (P06241 whole entry, looked up): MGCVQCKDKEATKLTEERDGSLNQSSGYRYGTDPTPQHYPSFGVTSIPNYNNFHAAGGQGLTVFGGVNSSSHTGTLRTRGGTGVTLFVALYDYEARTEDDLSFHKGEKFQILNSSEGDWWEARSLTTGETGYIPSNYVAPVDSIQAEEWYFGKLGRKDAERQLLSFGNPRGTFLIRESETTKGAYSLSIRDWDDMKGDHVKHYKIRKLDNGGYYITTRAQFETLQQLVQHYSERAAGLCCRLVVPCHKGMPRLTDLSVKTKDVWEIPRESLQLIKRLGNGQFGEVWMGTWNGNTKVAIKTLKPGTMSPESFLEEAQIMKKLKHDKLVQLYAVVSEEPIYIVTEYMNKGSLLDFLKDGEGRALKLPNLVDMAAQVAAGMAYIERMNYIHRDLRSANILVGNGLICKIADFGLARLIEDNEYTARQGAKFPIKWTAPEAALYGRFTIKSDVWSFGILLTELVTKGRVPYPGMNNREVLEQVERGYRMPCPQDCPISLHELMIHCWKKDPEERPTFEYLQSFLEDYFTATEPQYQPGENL
# test method notes: KINOMEscan competition binding
# run conditions: compound 10.0 µM
The entries below come with measured kinase still bound, per cent of control values attached.
measured attribute: kinase still bound, per cent of control (%)

[
  {
    "molecule": "COc1cc(C)c(Sc2cnc(NC(=O)c3ccc(CNC(C)C(C)C)cc3)s2)cc1C(=O)N1CCN(C(C)=O)CC1 (centres undefined)",
    "measured attribute": "kinase still bound, per cent of control",
    "value units": "%",
    "assay value": 100
  },
  {
    "molecule": "COc1cc2c(Nc3ccc(NC(=O)c4ccccc4)cc3)ncnc2cc1OCCCN1CCOCC1",
    "measured attribute": "kinase still bound, per cent of control",
    "value units": "%",
    "assay value": 55
  },
  {
    "molecule": "CCc1nc(-c2cccc(C)c2)c(-c2ccnc(NC(=O)c3ccccc3)c2)s1",
    "measured attribute": "kinase still bound, per cent of control",
    "value units": "%",
    "assay value": 45
  },
  {
    "molecule": "COc1ccc(N(C(=O)Oc2cc(C(=O)Nc3cccc(C(F)(F)F)c3)ccc2C)c2ccnc(Nc3ccc(N4CCN(C)CC4)cc3)n2)c(OC)c1",
    "measured attribute": "kinase still bound, per cent of control",
    "value units": "%",
    "assay value": 1.4
  }
]

====

# assay system: SIK3 (human) (UniProt Q9Y2K2)
# Sequence (Q9Y2K2 whole entry, looked up): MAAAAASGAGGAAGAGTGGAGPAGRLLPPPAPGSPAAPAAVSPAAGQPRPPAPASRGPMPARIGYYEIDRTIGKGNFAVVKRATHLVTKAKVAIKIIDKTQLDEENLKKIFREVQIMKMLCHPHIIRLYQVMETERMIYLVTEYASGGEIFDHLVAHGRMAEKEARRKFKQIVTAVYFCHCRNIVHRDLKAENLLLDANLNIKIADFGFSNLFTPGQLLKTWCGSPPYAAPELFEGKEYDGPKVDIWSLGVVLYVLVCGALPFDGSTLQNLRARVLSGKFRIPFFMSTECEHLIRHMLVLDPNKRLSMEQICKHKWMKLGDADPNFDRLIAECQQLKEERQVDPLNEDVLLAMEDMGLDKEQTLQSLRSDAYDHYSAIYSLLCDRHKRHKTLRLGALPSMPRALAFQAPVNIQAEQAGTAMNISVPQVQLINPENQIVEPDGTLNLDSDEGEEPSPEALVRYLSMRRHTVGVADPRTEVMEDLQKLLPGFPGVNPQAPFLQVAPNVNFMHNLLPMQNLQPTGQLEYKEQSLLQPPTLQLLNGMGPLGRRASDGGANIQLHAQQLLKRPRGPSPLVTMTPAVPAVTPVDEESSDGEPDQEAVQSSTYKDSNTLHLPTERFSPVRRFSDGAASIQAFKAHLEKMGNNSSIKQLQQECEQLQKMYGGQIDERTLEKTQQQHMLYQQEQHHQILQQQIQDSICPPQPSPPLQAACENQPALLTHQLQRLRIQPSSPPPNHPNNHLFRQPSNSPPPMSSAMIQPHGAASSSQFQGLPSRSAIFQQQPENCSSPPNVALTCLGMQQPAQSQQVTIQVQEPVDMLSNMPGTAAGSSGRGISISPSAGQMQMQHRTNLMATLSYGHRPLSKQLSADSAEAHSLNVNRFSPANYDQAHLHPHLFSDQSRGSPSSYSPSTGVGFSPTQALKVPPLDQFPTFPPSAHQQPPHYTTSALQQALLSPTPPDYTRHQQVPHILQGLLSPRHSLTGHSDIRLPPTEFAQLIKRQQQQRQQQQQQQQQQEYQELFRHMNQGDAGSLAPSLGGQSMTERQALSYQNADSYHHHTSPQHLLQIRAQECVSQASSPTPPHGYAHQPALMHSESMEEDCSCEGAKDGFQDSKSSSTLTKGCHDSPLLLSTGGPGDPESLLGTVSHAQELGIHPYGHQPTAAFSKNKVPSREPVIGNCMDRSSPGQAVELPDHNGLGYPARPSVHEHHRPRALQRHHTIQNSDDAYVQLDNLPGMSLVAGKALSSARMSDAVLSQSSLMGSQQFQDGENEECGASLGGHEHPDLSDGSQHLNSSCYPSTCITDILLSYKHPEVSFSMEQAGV
# test method notes: KINOMEscan competition binding
# run conditions: compound 10.0 µM
The entries below come with measured kinase still bound, per cent of control values attached.
measured attribute: kinase still bound, per cent of control (%)

[
  {
    "compound": "CCc1nc(-c2cccc(C)c2)c(-c2ccnc(NC(=O)c3ccccc3)c2)s1",
    "measured attribute": "kinase still bound, per cent of control",
    "value units": "%",
    "assay value": 94
  },
  {
    "compound": "COc1cc2c(Nc3ccc(NC(=O)c4ccccc4)cc3)ncnc2cc1OCCCN1CCOCC1",
    "measured attribute": "kinase still bound, per cent of control",
    "value units": "%",
    "assay value": 100
  },
  {
    "compound": "CCCS(=O)(=O)Nc1ccc(F)c(C(=O)c2c[nH]c3ncc(Cl)cc23)c1F",
    "measured attribute": "kinase still bound, per cent of control",
    "value units": "%",
    "assay value": 100
  },
  {
    "compound": "CC(=O)c1c(C)c2cnc(Nc3ccc(N4CCNCC4)cn3)nc2n(C2CCCC2)c1=O",
    "measured attribute": "kinase still bound, per cent of control",
    "value units": "%",
    "assay value": 100
  },
  {
    "compound": "O=c1[nH]c2ccccc2n1C1CCN(Cc2ccc(-c3nc4cc5[nH]cnc5cc4nc3-c3ccccc3)cc2)CC1",
    "measured attribute": "kinase still bound, per cent of control",
    "value units": "%",
    "assay value": 88
  },
  {
    "compound": "Cc1cn(-c2cc(C(=O)Nc3ccc(C)c(NC(=O)c4ccno4)c3)cc(C(F)(F)F)c2)cn1",
    "measured attribute": "kinase still bound, per cent of control",
    "value units": "%",
    "assay value": 100
  },
  {
    "compound": "CCOc1cc(N2CCC(O)CC2)ccc1Nc1ncc2c(n1)N(C)c1ccccc1C(=O)N2C",
    "measured attribute": "kinase still bound, per cent of control",
    "value units": "%",
    "assay value": 100
  },
  {
    "compound": "N#Cc1cc(-c2ccnc(Nc3ccc(-n4cnc(-c5cccnc5)n4)cc3)n2)cc(N2CCOCC2)c1",
    "measured attribute": "kinase still bound, per cent of control",
    "value units": "%",
    "assay value": 100
  },
  {
    "compound": "N#C/C(=C1/Nc2ccccc2S1)c1ccnc(NCCc2cccnc2)n1",
    "measured attribute": "kinase still bound, per cent of control",
    "value units": "%",
    "assay value": 100
  },
  {
    "compound": "CCN1CCN(Cc2ccc(NC(=O)c3ccc(C)c(/C=C/c4cnc5[nH]ccc5c4OC)c3)cc2C(F)(F)F)CC1",
    "measured attribute": "kinase still bound, per cent of control",
    "value units": "%",
    "assay value": 100
  }
]
